assay: chemical genetic growth profiling, strain panel (AID 1159580);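 also: tested at 20 µM; growth read once vehicle control cultures reached saturation at 30 °C; 1 = growth at the plate median or of vehicle wells; lower values mean less growth of the strain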; details: S. cerevisiae deletion strains, growth OD, locus YDR335W, strain msn5, stronger effect = lower value
In all, about 5,500 compounds went through this assay and about 2,000 (36%) were called active. Not shown: some 18% with an inconclusive outcome. This is one part of the list.
PROPERTY LABEL: normalized growth
I'd appreciate a reply containing only the number, no unit.

Enquiry: Field request: normalized growth | item: CC(=O)OC[C@H]1O[C@@H](Oc2cc(OC(C)=O)c3c(=O)cc(-c4ccc(OC(C)=O)cc4)oc3c2)[C@H](OC(C)=O)[C@@H](OC(C)=O)[C@@H]1OC(C)=O
Return: 0.989

Enquiry: Field request: normalized growth | item: COc1cc(NS(=O)(=O)c2ccc(N)cc2)ncn1
Return: 0.971

Enquiry: Field request: normalized growth | item: COc1ccc([C@H]2COc3c(ccc(O)c3OC)C2)c(OC)c1O
Return: 0.98

Enquiry: Field request: normalized growth | item: Cc1cc(C(C)(C)C)cc(C)c1CC1=NCCN1
Return: 0.999

Enquiry: Field request: normalized growth | item: COc1cc2cc3c4cc(OC)c(OC)cc4cc[n+]3c(C)c2cc1OC
Return: 1.01

Enquiry: Field request: normalized growth | item: CCc1cccc2c3c([nH]c12)C(CC)(CC(=O)O)OCC3 (stereo not given)
Return: 0.968

Enquiry: Field request: normalized growth | item: CC(=O)CC1CCCCN1 (stereo not given)
Return: 1.01

Enquiry: Field request: normalized growth | item: CC1(C)S[C@@H]2[C@H](NC(=O)[C@H](C(=O)O)c3cccs3)C(=O)N2[C@H]1C(=O)O
Return: 1.01

Enquiry: Field request: normalized growth | item: OCCN1CCN(CCCN2c3ccccc3Sc3ccc(C(F)(F)F)cc32)CC1
Return: 0.972

Enquiry: Field request: normalized growth | item: CC(=O)OCC(=O)[C@@]12OC3(CCCC3)O[C@@H]1CC1C3CCC4=CC(=O)C=C[C@]4(C)[C@@]3(F)[C@@H](O)C[C@@]12C (stereo not given in full)
Return: 1.01

Enquiry: Field request: normalized growth | item: COC(=O)C[C@H]1C(C)(C)[C@@H](O)[C@@H]2CC3=C4C=C(OC)O[C@@H](c5ccoc5)[C@]4(C)CCC3[C@@]1(C)C2=O (stereo not given in full)
Return: 0.994

Enquiry: Field request: normalized growth | item: CN1C(=O)CCS(=O)(=O)C1c1ccc(Cl)cc1 (stereo not given)
Return: 0.972

Enquiry: Field request: normalized growth | item: CCC1C(=O)OCC1Cc1cncn1C (stereo not given)
Return: 1.02

Enquiry: Field request: normalized growth | item: COc1cccc(OC)c1C(=O)N[C@@H]1C(=O)N2[C@@H]1SC(C)(C)[C@@H]2C(=O)O
Return: 0.998

Enquiry: Field request: normalized growth | item: C[C@]12CCC3C(CC[C@H]4C[C@H](OS(=O)(=O)O)CC[C@]34C)C1CCC2=O (stereo not given in full)
Return: 1.04

Enquiry: Field request: normalized growth | item: O=C(O)c1cc(=O)c2cccc(O)c2[nH]1
Return: 1.04

Enquiry: Field request: normalized growth | item: CCCc1nc2c(C)cc(-c3nc4ccccc4n3C)cc2n1Cc1ccc(-c2ccccc2C(=O)O)cc1
Return: 1.03

Enquiry: Field request: normalized growth | item: C[C@]12CCC(=O)C=C1CCC1C2[C@@H](O)C[C@@]2(C)C1CC[C@]2(O)C(=O)COC(=O)CCC(=O)O (stereo not given in full)
Return: 1.01

Enquiry: Field request: normalized growth | item: COc1cc2c(cc1O)CCNC2C (stereo not given)
Return: 0.983

Enquiry: Field request: normalized growth | item: NC(N)=NC(N)=Nc1ccccc1
Return: 1

Enquiry: Field request: normalized growth | item: Cc1ccc(N(CC2=NCCN2)c2cccc(O)c2)cc1
Return: 1.03

Enquiry: Field request: normalized growth | item: COc1cc2c(cc1OC)[C@@H]1C(=O)c3ccc4c(c3O[C@@H]1CO2)CC(C(C)C)O4 (stereo not given in full)
Return: 1.01

Enquiry: Field request: normalized growth | item: C1CCC(C(CC2CCCCN2)C2CCCCC2)CC1 (stereo not given)
Return: 0.957

Enquiry: Field request: normalized growth | item: O=c1c(O)c(-c2ccc(O)c(O)c2)oc2cc(O)ccc12
Return: 0.995

Enquiry: Field request: normalized growth | item: CCCCc1nc(Cl)c(CO)n1Cc1ccc(-c2ccccc2-c2nn[nH]n2)cc1
Return: 0.992

Enquiry: Field request: normalized growth | item: O=C(O)c1cc(=O)c2c(Cl)cc(Cl)cc2[nH]1
Return: 1.01

Enquiry: Field request: normalized growth | item: CC1(C)S[C@@H]2[C@H](NC(=O)Cc3ccccc3)C(=O)N2[C@H]1C(=O)O
Return: 1.03

Enquiry: Field request: normalized growth | item: COc1cc(-c2oc3cc(O)ccc3c(=O)c2O)ccc1O
Return: 0.971

Enquiry: Field request: normalized growth | item: C=C(C)[C@H]1Cc2c(ccc3c2O[C@@H]2COc4cc(OC)c(OC)cc4[C@@H]2C3=O)O1
Return: 1

Enquiry: Field request: normalized growth | item: O=C(CCBr)N1CCN(C(=O)CCBr)CC1
Return: 1.02

Enquiry: Field request: normalized growth | item: Cc1onc(-c2ccccc2)c1C(=O)NC1C(=O)N2[C@@H]1SC(C)(C)[C@@H]2C(=O)O (stereo not given in full)
Return: 1.02

Enquiry: Field request: normalized growth | item: CC1(C)C(=O)[C@@H]2C[C@@]3(O)C4=CC(=O)O[C@@H](c5ccoc5)[C@]4(C)CCC3[C@@](C)(C2=O)[C@H]1CC(=O)O (stereo not given in full)
Return: 1.01

Enquiry: Field request: normalized growth | item: NC(=O)NO
Return: 1.02

Enquiry: Field request: normalized growth | item: CC(=O)O[C@@H]1CC[C@]2(C)C3CC[C@]4(C)C(=O)CCC4C3CC[C@H]2C1 (stereo not given in full)
Return: 0.995

Enquiry: Field request: normalized growth | item: CNS(=O)(=O)c1ccc(NC(=O)c2ccccc2C(=O)O)cc1
Return: 1

Enquiry: Field request: normalized growth | item: O=c1[nH]cnc2c1ncn2C1O[C@H](CO)[C@@H](O)[C@H]1O (stereo not given in full)
Return: 0.997

Enquiry: Field request: normalized growth | item: C#C[C@]1(O)CCC2C3CCC4=Cc5oncc5C[C@]4(C)C3CC[C@@]21C (stereo not given in full)
Return: 0.95

Enquiry: Field request: normalized growth | item: CC(=O)NS(=O)(=O)c1ccc(NC(=O)c2ccccc2C(=O)O)cc1
Return: 1.01

Enquiry: Field request: normalized growth | item: CN(C)C(=N)N=C(N)N
Return: 1.03

Enquiry: Field request: normalized growth | item: CC[C@H]1OC(=O)[C@H](C)[C@@H](O[C@H]2C[C@@](C)(OC)[C@@H](O)[C@H](C)O2)[C@H](C)[C@@H](O[C@@H]2O[C@H](C)C[C@H](N(C)C)[C@H]2O)[C@](C)(O)C[C@@H](C)[C@@H]2N[C@@H](COCCOC)O[C@H]([C@H]2C)[C@]1(C)O
Return: 0.998
